Entry source: patent US10864201B2

# system tested: FLAG-tagged Vanin-1 (AA 22-493, T26I) (Homo sapiens (Human), UniProt O95497, T26I)
# Sequence (O95497 22-493 T26I): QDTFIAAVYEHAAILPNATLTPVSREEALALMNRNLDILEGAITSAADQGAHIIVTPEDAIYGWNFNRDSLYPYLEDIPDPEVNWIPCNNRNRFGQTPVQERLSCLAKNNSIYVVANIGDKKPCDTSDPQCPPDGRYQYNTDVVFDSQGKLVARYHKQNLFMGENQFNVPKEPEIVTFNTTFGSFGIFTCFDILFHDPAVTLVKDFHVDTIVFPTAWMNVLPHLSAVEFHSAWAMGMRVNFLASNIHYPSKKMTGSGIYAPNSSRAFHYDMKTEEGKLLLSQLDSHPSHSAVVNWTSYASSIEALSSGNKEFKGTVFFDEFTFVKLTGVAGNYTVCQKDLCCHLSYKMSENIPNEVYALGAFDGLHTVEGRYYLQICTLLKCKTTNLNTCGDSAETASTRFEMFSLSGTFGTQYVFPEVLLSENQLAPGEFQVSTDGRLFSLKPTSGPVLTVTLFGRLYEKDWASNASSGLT
# assay protocol: Vanin-1 enzymatic assay
# conditions used: formation of pantothenic acid from D-pantethine (3 μM), RapidFire MS; geometric mean in case of multiple measurements; read-out: VNN 1 IC50
observed property: IC50 (nM)
Numbers only; they are read as nM.

Here are 4 molecules together with their reported answers.
CN(C(=O)C1CC1)[C@H]1CCN(C(=O)c2cnc3c(c2)CC[C@](C)(c2cncnc2)N3)C1
0.3
CN(c1ncccn1)[C@H]1CCN(C(=O)c2cnc3c(c2)CCC(C)(C)N3)C1
0.2
CC(=O)N(C)[C@H]1CCN(C(=O)c2cnc3c(c2)C[C@@](C)(c2ccc(Cl)cc2)N3)C1
1.4
CN(C(=O)C1CCC1)[C@H]1CCN(C(=O)c2cnc3c(c2)CC[C@](C)(c2cncnc2)N3)C1
0.2

Now for a further molecule.
Record CC(=O)N(C)[C@H]1CCN(C(=O)c2cnc3c(c2)CCC(C)(c2ccccc2)N3)C1 (some centres unmarked) , field IC50: 0.3
